# Assay target: calpain I (Homo sapiens, UniProt P07384)
# Experiment summary: Assay of Calpain Activity (casein substrate, microplate, Coomassie blue)
# Format: biochemical
# Design: Calpain I was purified from human erythrocytes; from tissue; host or cells: human erythrocytes
Assay metric: pIC50
In simple prose, pIC50 is minus the logarithm base ten of a concentration in moles per litre.

Record lookup: for calpain I (Homo sapiens, UniProt P07384), what pIC50 belongs to `O=C(O)/C(S)=C/c1ccc(I)cc1` ?
6.44

====

// values below are pIC50; system is thermolysin (Bacillus thermoproteolyticus)
Sequence (P00800 233-548): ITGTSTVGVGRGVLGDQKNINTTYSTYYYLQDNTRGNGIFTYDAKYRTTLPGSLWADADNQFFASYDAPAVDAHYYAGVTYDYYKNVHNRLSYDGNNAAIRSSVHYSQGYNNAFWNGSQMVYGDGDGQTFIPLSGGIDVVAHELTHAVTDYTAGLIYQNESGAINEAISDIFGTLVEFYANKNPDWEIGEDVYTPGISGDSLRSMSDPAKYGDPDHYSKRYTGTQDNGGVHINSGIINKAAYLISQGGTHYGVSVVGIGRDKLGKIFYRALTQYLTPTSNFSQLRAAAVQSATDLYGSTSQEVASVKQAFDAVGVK
In simple prose, pIC50 is minus the logarithm base ten of a concentration in moles per litre.

Reference set, count: 3
> print(dat)
              structure.as.smiles                              assay.target  reported
1  O=C(O)/C(S)=C/c1c[nH]c2ccccc12  thermolysin (Bacillus thermoproteolyticus)      3.61
2    O=C(O)/C(S)=C/c1ccc2ccccc2c1  thermolysin (Bacillus thermoproteolyticus)      3.40
3          O=C(O)/C(S)=C/c1ccccc1  thermolysin (Bacillus thermoproteolyticus)      3.44

Let us examine a further case.
Please give the measured pIC50 for this compound: `O=C(O)/C(S)=C/c1ccc(I)cc1`
3.69

====

The reader will find reported IC50 values listed item by item below.
# Assay target: calpain I (Homo sapiens, UniProt P07384)
# Sequence (P07384 1-714): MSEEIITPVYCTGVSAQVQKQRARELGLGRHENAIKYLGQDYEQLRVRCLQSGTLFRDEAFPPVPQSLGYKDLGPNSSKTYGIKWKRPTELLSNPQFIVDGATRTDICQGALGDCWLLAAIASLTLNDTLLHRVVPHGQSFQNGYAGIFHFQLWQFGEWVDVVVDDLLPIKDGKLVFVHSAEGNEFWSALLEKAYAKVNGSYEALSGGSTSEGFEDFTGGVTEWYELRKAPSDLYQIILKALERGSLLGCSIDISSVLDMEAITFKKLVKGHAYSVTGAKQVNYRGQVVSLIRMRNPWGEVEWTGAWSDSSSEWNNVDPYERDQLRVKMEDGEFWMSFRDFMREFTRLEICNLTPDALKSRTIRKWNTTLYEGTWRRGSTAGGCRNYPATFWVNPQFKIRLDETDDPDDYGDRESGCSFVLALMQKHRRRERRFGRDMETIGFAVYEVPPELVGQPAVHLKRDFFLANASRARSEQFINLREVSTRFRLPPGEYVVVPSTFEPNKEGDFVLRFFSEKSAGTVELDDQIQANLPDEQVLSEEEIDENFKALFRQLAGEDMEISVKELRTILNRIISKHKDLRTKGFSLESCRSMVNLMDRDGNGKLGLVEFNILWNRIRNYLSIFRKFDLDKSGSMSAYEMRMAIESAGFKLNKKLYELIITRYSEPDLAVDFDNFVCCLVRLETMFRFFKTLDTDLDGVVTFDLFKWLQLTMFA
# Sequence (P04632 1-268 partner): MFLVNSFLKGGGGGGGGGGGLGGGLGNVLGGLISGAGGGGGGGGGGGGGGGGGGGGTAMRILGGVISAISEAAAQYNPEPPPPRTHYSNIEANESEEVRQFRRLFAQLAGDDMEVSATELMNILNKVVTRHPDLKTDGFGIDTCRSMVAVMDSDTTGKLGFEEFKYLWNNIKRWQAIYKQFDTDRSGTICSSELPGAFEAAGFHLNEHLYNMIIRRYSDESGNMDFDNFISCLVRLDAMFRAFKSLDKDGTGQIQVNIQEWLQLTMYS
# Experiment summary: Assay of Calpain Activity (casein substrate, microplate, Coomassie blue)
# Assay type: biochemical
# Set-up: Calpain I was purified from human erythrocytes; from tissue; host or cells: human erythrocytes
# Measurement parameters: Table II (selectivity); read-out: Inhibitory Activity of Thiol-Acrylates, Calpain (IC50)

Please give the measured IC50 for this compound: O=C(O)/C(S)=C/c1ccccc1 [Example 51, 2-Propenoic Acid, 2-mercapto-3-phenyl]
5900 nM

One more compound: O=C(O)/C(S)=C/c1c[nH]c2ccccc12 [Example 22]
1300 nM

One more compound: O=C(O)/C(S)=C/c1ccc2ccccc2c1 [Example 3]
2400 nM

====

# Assay target: papain (Carica papaya, UniProt P00784)
# Sequence (P00784 134-345): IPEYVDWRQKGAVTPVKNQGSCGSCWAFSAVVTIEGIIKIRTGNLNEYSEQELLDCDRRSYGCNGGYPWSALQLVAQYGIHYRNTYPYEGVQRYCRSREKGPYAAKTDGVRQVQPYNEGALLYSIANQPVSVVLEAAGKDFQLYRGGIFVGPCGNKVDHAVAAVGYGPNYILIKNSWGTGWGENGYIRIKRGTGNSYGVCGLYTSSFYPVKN
pIC50: −log10 of the molar value.
Assay metric: pIC50

Reference set, count: 3
> print(dat)
            structure.as.smiles  assay.metric  reported
1     O=C(O)/C(S)=C/c1ccc(I)cc1         pIC50    < 3.30
2        O=C(O)/C(S)=C/c1ccccc1         pIC50    < 3.70
3  O=C(O)/C(S)=C/c1ccc2ccccc2c1         pIC50    < 3.70

Let us examine a further case.
Please give the measured pIC50 for this compound: `O=C(O)/C(S)=C/c1c[nH]c2ccccc12`
< 3.70

====

# Assay target: calpain I (Homo sapiens, UniProt P07384)
# Sequence (P07384 1-714): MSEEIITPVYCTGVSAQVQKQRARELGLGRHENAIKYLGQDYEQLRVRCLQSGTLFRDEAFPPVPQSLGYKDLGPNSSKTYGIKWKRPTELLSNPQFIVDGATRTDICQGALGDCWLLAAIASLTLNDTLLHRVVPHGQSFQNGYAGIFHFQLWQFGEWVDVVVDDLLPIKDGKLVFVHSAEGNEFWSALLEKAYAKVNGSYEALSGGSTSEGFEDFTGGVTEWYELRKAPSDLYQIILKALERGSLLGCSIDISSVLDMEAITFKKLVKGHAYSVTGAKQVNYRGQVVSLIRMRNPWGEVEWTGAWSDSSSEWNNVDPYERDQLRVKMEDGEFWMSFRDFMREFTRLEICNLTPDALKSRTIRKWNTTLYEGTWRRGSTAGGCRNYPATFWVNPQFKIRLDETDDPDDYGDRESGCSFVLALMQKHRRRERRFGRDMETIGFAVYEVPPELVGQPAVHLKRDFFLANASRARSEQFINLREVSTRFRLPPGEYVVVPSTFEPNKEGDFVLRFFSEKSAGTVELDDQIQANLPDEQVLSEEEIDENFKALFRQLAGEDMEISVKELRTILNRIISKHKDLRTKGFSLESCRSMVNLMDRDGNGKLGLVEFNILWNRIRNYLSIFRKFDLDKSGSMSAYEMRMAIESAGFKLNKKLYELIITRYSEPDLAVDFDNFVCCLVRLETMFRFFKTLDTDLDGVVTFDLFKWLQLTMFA
# Sequence (P04632 1-268 partner): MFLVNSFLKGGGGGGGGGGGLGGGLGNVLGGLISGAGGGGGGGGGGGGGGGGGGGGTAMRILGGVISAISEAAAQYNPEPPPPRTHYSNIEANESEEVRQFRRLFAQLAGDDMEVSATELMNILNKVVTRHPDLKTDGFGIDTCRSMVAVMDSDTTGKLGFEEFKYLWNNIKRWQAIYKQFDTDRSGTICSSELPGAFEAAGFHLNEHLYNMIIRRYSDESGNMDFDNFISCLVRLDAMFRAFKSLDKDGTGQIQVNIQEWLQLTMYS
# Experiment summary: Assay of Calpain Activity (casein substrate, microplate, Coomassie blue)
# Format: biochemical
# Design: Calpain I was purified from human erythrocytes; from tissue; host or cells: human erythrocytes
# Measurement parameters: Table I; 4 mM CaCl2, pH 7.4, 25° C., 60 minutes; read-out: Inhibitory Activity Against Human Calpain I IC50
Label YES when IC50 < 3 µM; otherwise NO.

Study these solved cases before continuing.
> print(dat)
                         structure.as.smiles  discrete.label
 1          CC(C)(C)c1ccc(/C=C(\S)C(=O)O)cc1              NO
 2      O=C(O)/C(S)=C/c1ccc2c(c1)Cc1ccccc1-2             YES
 3            O=C(O)/C(S)=C/c1c[nH]c2ccccc12             YES
 4          COc1ccc2cc(/C=C(\S)C(=O)O)ccc2c1             YES
 5            CCOC(=O)/C(S)=C/c1ccc2ccccc2c1              NO
 6             O=C(O)/C(S)=C/c1ccc2c(c1)OCO2             YES
 7                     O=C(O)/C(S)=C/c1cccs1              NO
 8               O=C(O)/C(S)=C/c1cc2ccccc2o1              NO
 9  O=C(O)/C(S)=C/c1c(-c2ccc(Cl)cc2)[nH]c2ccccc12              NO
10              O=C(O)/C(S)=C/c1cccc2ccccc12              NO

Lab note: confirm whether the reported IC50 for this compound is below 3 µM, equality not counting. compound: `O=C(O)/C(S)=C/c1ccc(F)cc1`
YES

One more compound: `Cc1cc(/C=C(\S)C(=O)O)c(C)n1-c1ccccc1`
NO

One more compound: `O=C(O)/C(S)=C/c1cc2ccccc2[nH]1`
YES

One more compound: `O=C(O)/C(S)=C/c1ccccc1`
NO

One more compound: `CCn1c2ccccc2c2cc(/C=C(\S)C(=O)O)ccc21`
YES

One more compound: `O=C(O)/C(S)=C/c1cc2ccccc2c2ccccc12`
NO

One more compound: `O=C(O)/C(S)=C/c1ccc2ccccc2c1`
YES

One more compound: `O=C(O)/C(S)=C/c1ccc(OCc2ccccc2)cc1`
YES

One more compound: `O=C(O)/C(S)=C/c1ccsc1`
NO

One more compound: `O=C(O)/C(S)=C/c1c[nH]c2ccc(F)cc12`
YES

One more compound: `O=C(O)/C(S)=C/c1ccc(CCc2ccccc2)cc1`
YES

One more compound: `O=C(O)/C(S)=C/c1ccc2c(c1)CCCC2`
YES
